Where do the numbers come from? From patent US20100130514A1.

Target: human GnRHR1 (Homo sapiens)
Sequence (P30968 whole entry): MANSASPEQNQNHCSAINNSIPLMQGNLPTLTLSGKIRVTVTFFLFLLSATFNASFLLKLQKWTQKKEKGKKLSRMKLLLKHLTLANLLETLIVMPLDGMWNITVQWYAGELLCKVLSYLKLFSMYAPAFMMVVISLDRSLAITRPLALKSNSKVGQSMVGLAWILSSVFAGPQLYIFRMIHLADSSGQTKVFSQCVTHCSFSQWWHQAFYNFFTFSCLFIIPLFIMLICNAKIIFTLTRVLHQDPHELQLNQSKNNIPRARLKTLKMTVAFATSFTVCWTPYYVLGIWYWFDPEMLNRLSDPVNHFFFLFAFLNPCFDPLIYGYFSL
Experiment: Inhibitory effect for the change of calcium levels in GnRH-stimulated cells (hGnRHR1#1 HEK293 cells)
Settings: HEK293 cells stably expressing human GnRHR1; 10 nM GnRH added; FLIPR Calcium Assay Kit; read-out: IC50 (drug concentration at which 50% GnRH-stimulated intracellular calcium flux was inhibited)
Description: 1) Cloning and Construction of the Vector Expressing Human GnRH Receptor1 (GnRHR1) […] The expression vector of human GnRHR1 gene, was digested by XhoI into a linear DNA. […] Neomycin resistant cell lines were selected by culture in the medium containing G418 (Invitrogen) at 1 mg/mL, and then the change of calcium levels in GnRH-stimulated cells was measured by the method described below. […]
MEASUREMENT_NAME: pIC50
# reply with the number alone; pIC50 is -log10 of concentration in mol/L

Entry COC(=O)N(C)CCOc1ccc(F)c(F)c1COc1ccc(F)c(-n2c(=O)[nH]c3csc(C(=O)O)c3c2=O)c1 [Example 8] has what pIC50?
7.04

---

Experiment: Assay for oral absorbability: plasma drug concentration after oral administration
Type: in vivo
Conditions: overnight fasted male SD rats, 3 mg/kg, 360 minutes
MEASUREMENT_NAME: C360 (plasma drug concentration at 360 minutes after administration) (ng/mL)
Give just the numeric value; ng/mL need not be written.

Which measured C360 (plasma drug concentration at 360 minutes after administration) value corresponds to COC(=O)N(C)CCOc1ccc(F)c(F)c1COc1ccc(F)c(-n2c(=O)[nH]c3csc(C(=O)O)c3c2=O)c1 [Example 8] ?
490
